testDescription: SK-BR-3 cell growth inhibitors, pilot screen, 24 h, human (AID 572);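 note: compound exposure lasted between 18 and 24 h rather than exactly 24 h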
testContext: SK-BR-3 viability, CellTiter-Glo luminescence, at 10 µM, hits give low values
Hi! Just check whether viability is below 90%. Below gives Yes, equal or above gives No.

These solved cases illustrate the format of a correct answer.
CCn1c(SCC(=O)NC)nnc1C(C)C | No
O=C(COc1ccc(S(=O)(=O)NC2CCCCC2)cc1)NCc1ccccn1 | Yes
CCOc1ccccc1N1C(=O)c2ccc(C(=O)Nc3cccnc3)cc2C1=O | No
CC(=O)N1CCc2cc(S(=O)(=O)NCCC(=O)NC3CCCc4ccccc43)ccc21 (stereo not drawn) | No
COc1ccc(CCn2c(=N)c(C(=O)NCc3ccco3)cc3c(=O)n4ccccc4nc32)cc1 | Yes
Cc1nc2sc3c(c2c(=O)o1)CCC3 | No
Cc1ccc(S(=O)(=O)N2CCN(C(=O)N3CCOCC3)C2C)cc1 (stereo not drawn) | Yes
Cc1nnc(SCC(=O)Nc2ccc3c(c2)OCCO3)n1CC1CCCO1 (stereo not drawn) | No
COc1ccccc1NC(=O)NCc1ccc2c(c1)OCO2 | Yes
CN1CCN(C(=O)c2cnn3c(C(F)F)cc(C4CC4)nc23)CC1 | No

Task: Hi there! Is viability for Cc1ccc(CS(=O)(=O)Cc2ccc(C(=O)NCc3ccccn3)o2)cc1 below 90%, do you know?
Output: No

Task: Note, next up: O=C(CSc1nnc(-c2ccco2)n1-c1ccccc1)N1CCN(C(=O)c2ccco2)CC1
Output: No

Task: Note, next up: CCOC(=O)c1ccc(NC(=O)CCc2nc(-c3ccc(C)cc3)no2)cc1
Output: Yes

Task: Note, next up: Cc1ccccc1-c1nc2ccccc2c(=O)n1C1CCS(=O)(=O)C1 (stereo not drawn)
Output: No
